Assay: Permeability from basolateral to apical side in MDCK cells harboring MDR1
Format: ADME, cell-based, Canis lupus familiaris
Conditions: dog, read-out: permeability

TEST SMILES: Cc1cncc(-c2ccc(C(=O)N(c3ncccc3Cl)[C@@H]3CCCNC3)cc2)n1
Papp B→A [×10⁻⁶ cm/s]: 20
//
TEST SMILES: O=C(c1ccc(-n2nnc3cccnc32)cc1)N(c1ncccc1Cl)[C@@H]1CCCNC1
Papp B→A [×10⁻⁶ cm/s]: 20.6
//
TEST SMILES: Cc1cnc2c(c1)nnn2-c1ccc(C(=O)N(c2ncccc2Cl)[C@@H]2CCCNC2)nc1
Papp B→A [×10⁻⁶ cm/s]: 19.9

---

Experiment: Lipophilicity, log D of the compound by shake flask method
Format: physicochemical
Details: octanol/water
Simple rule here: logD less than 0.9 is Y, otherwise N.

TEST SMILES: O=C(c1ccc(-n2nnc3cccnc32)cn1)N(c1ncccc1Cl)[C@@H]1CCCNC1
ASSIGNED LABEL: Y

TEST SMILES: CN(C)c1cncc(-c2ccc(C(=O)N(c3ncccc3Cl)[C@@H]3CCCNC3)cc2)n1
ASSIGNED LABEL: N

TEST SMILES: Cc1cnc2c(c1)nnn2-c1ccc(C(=O)N(c2ncccc2Cl)[C@@H]2CCCNC2)cc1
ASSIGNED LABEL: N

TEST SMILES: Cc1cnc2c(c1)nnn2-c1ccc(C(=O)N(c2ncccc2Cl)[C@@H]2CCCNC2)nc1
ASSIGNED LABEL: Y

TEST SMILES: O=C(c1ccc(-c2cnn3cccnc23)cc1)N(c1nccc2ccccc12)[C@@H]1CCCNC1
ASSIGNED LABEL: N

TEST SMILES: O=C(c1ccc(-n2nnc3cccnc32)cc1)N(c1nccc2ccccc12)[C@@H]1CCCNC1
ASSIGNED LABEL: N

TEST SMILES: O=C(c1ccc(-n2nnc3cccnc32)nc1)N(c1ncccc1Cl)[C@@H]1CCCNC1
ASSIGNED LABEL: Y

---

Target: Cytochrome P450 1A2 (Homo sapiens, UniProt P05177)
Sequence (P05177 whole entry): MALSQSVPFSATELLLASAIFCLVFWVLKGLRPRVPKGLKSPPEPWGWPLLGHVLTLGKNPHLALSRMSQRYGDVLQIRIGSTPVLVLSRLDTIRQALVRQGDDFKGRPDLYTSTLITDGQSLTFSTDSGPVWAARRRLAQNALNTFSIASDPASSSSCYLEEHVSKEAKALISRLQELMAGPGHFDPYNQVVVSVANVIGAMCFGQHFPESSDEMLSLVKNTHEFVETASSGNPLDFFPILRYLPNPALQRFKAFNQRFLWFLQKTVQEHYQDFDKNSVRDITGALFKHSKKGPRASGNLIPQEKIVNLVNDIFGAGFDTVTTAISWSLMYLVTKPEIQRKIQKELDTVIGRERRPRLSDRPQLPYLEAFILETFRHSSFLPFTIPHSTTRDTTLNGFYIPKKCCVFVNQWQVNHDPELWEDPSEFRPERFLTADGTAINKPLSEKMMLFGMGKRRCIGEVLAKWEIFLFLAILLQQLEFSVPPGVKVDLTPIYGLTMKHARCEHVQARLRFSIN

TEST SMILES: O=C(c1ccc(-n2nnc3cccnc32)cc1)N(c1ncccc1Cl)[C@@H]1CCCNC1
IC50: > 30 µM

---

pKi: −log10 of the molar value.
Endpoint: pKi. System: Voltage-gated inwardly rectifying potassium channel KCNH2 (Homo sapiens). Items follow.
Sequence (Q12809 whole entry): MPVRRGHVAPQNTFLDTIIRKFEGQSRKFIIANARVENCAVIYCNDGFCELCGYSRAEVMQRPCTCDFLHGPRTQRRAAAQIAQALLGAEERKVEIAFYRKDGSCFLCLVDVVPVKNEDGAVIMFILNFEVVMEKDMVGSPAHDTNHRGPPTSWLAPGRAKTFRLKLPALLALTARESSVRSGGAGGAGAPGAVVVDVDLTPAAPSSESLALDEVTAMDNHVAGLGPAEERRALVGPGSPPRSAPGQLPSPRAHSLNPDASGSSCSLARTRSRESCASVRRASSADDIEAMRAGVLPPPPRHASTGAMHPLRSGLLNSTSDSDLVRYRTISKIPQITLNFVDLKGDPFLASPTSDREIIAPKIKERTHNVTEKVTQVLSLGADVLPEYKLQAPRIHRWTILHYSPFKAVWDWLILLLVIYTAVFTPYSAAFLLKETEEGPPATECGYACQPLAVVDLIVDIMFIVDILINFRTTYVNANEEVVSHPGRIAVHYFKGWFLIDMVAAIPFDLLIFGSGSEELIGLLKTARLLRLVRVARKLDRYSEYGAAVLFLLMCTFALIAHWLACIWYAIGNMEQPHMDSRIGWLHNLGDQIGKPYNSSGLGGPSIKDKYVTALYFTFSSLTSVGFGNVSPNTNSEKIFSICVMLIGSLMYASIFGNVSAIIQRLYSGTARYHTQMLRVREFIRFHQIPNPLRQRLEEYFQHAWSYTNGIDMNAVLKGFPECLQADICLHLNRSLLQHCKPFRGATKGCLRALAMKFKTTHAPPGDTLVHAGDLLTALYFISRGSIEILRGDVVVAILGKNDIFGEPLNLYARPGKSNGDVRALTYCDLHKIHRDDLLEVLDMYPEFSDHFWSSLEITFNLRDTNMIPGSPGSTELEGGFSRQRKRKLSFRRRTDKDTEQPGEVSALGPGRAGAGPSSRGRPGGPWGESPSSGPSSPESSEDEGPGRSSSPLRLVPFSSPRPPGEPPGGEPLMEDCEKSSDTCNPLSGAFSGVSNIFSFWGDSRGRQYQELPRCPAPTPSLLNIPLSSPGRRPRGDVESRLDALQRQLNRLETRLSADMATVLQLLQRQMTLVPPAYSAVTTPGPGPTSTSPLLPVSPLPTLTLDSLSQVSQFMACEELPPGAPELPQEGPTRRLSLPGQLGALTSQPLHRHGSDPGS

TEST SMILES: O=C(c1ccc(-n2nnc3cccnc32)cn1)N(c1ncccc1Cl)[C@@H]1CCCNC1
ASSAYED SYSTEM: Voltage-gated inwardly rectifying potassium channel KCNH2 (Homo sapiens)
CENSORING QUALIFIER: =
pKi: 4.54
--
TEST SMILES: O=C(c1ccc(-c2cnn3cccnc23)cc1)N(c1nccc2ccccc12)[C@@H]1CCCNC1
ASSAYED SYSTEM: Voltage-gated inwardly rectifying potassium channel KCNH2 (Homo sapiens)
CENSORING QUALIFIER: =
pKi: 5.27
--
TEST SMILES: O=C(c1ccc(-c2ccccc2)cc1)N(c1nccc2ccccc12)[C@@H]1CCCNC1
ASSAYED SYSTEM: Voltage-gated inwardly rectifying potassium channel KCNH2 (Homo sapiens)
CENSORING QUALIFIER: =
pKi: 5.66
--
TEST SMILES: Cc1ccc2nnn(-c3ccc(C(=O)N(c4ncccc4Cl)[C@@H]4CCCNC4)cc3)c2n1
ASSAYED SYSTEM: Voltage-gated inwardly rectifying potassium channel KCNH2 (Homo sapiens)
CENSORING QUALIFIER: =
pKi: 4.47
--
TEST SMILES: CNc1cncc(-c2ccc(C(=O)N(c3ncccc3Cl)[C@@H]3CCCNC3)cc2)n1
ASSAYED SYSTEM: Voltage-gated inwardly rectifying potassium channel KCNH2 (Homo sapiens)
CENSORING QUALIFIER: =
pKi: 4.42
--
TEST SMILES: CN(C)c1cncc(-c2ccc(C(=O)N(c3ncccc3Cl)[C@@H]3CCCNC3)cc2)n1
ASSAYED SYSTEM: Voltage-gated inwardly rectifying potassium channel KCNH2 (Homo sapiens)
CENSORING QUALIFIER: =
pKi: 4.85
--
TEST SMILES: Cc1cncc(-c2ccc(C(=O)N(c3ncccc3Cl)[C@@H]3CCCNC3)cc2)n1
ASSAYED SYSTEM: Voltage-gated inwardly rectifying potassium channel KCNH2 (Homo sapiens)
CENSORING QUALIFIER: =
pKi: 4.42
--
TEST SMILES: Cc1cnc2c(c1)nnn2-c1ccc(C(=O)N(c2ncccc2Cl)[C@@H]2CCCNC2)nc1
ASSAYED SYSTEM: Voltage-gated inwardly rectifying potassium channel KCNH2 (Homo sapiens)
CENSORING QUALIFIER: =
pKi: 5.23
--
TEST SMILES: O=C(c1ccc(-c2cnccn2)cc1)N(c1nccc2ccccc12)[C@@H]1CCCNC1
ASSAYED SYSTEM: Voltage-gated inwardly rectifying potassium channel KCNH2 (Homo sapiens)
CENSORING QUALIFIER: <
pKi: 4.40
--
TEST SMILES: COc1ccc(CCC(=O)N(c2nccc3ccccc23)[C@@H]2CCCNC2)cc1
ASSAYED SYSTEM: Voltage-gated inwardly rectifying potassium channel KCNH2 (Homo sapiens)
CENSORING QUALIFIER: =
pKi: 4.89
--
TEST SMILES: O=C(c1ccc(-n2nnc3cccnc32)cc1)N(c1nccc2ccccc12)[C@@H]1CCCNC1
ASSAYED SYSTEM: Voltage-gated inwardly rectifying potassium channel KCNH2 (Homo sapiens)
CENSORING QUALIFIER: =
pKi: 4.80
--
TEST SMILES: Cn1cc(-c2ccc(C(=O)N(c3nccc4ccccc34)[C@@H]3CCCNC3)cc2)cn1
ASSAYED SYSTEM: Voltage-gated inwardly rectifying potassium channel KCNH2 (Homo sapiens)
CENSORING QUALIFIER: =
pKi: 4.80
--
TEST SMILES: O=C(c1ccc(-n2nnc3cccnc32)nc1)N(c1ncccc1Cl)[C@@H]1CCCNC1
ASSAYED SYSTEM: Voltage-gated inwardly rectifying potassium channel KCNH2 (Homo sapiens)
CENSORING QUALIFIER: =
pKi: 4.90
--
TEST SMILES: Cc1cnc2c(c1)nnn2-c1ccc(C(=O)N(c2ncccc2Cl)[C@@H]2CCCNC2)cc1
ASSAYED SYSTEM: Voltage-gated inwardly rectifying potassium channel KCNH2 (Homo sapiens)
CENSORING QUALIFIER: =
pKi: 5.48

---

Molecular target: Cytochrome P450 2D6 (Homo sapiens, UniProt P10635)
Sequence (P10635 whole entry): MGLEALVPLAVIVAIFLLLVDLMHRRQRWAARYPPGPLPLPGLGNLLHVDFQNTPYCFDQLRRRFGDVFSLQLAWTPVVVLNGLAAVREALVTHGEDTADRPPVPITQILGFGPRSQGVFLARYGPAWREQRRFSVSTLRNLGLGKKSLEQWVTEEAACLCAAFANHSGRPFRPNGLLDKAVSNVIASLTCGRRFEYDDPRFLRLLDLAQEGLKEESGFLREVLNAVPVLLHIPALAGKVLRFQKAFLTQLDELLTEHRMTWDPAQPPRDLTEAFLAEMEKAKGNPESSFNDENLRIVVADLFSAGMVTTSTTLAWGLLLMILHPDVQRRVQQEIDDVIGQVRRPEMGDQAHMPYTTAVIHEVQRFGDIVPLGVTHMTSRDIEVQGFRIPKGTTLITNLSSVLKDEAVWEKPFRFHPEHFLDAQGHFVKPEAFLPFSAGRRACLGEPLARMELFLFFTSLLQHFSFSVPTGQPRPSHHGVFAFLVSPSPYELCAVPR
pIC50: −log10 of the molar value.

TEST SMILES: O=C(c1ccc(-n2nnc3cccnc32)cc1)N(c1ncccc1Cl)[C@@H]1CCCNC1
pIC50: < 4.52

---

Target: 80S Ribosome
Test: Binding affinity to 80S ribosome in human HuH7 cells harboring pCMV-truncated human PCSK9 (1 to 152 residues)-proLuc assessed as inhibition of PCSK9 mRNA translation after overnight incubation by luciferase reporter gene assay
Format: cell-based
Details: huh-7
pIC50: −log10 of the molar value.
Each entry below lists one item and its recorded pIC50 value.

TEST SMILES: O=C(c1ccc(-n2nnc3cccnc32)cn1)N(c1ncccc1Cl)[C@@H]1CCCNC1
pIC50: 6.15

TEST SMILES: Cn1cc(-c2ccc(C(=O)N(c3nccc4ccccc34)[C@@H]3CCCNC3)cc2)cn1
pIC50: 5.97

TEST SMILES: Cc1cnc2c(c1)nnn2-c1ccc(C(=O)N(c2ncccc2Cl)[C@@H]2CCCNC2)nc1
pIC50: 6.07

TEST SMILES: O=C(c1ccc(-c2cnn3cccnc23)cc1)N(c1nccc2ccccc12)[C@@H]1CCCNC1
pIC50: 6.16

Reference source for all entries: ChEMBL document CHEMBL4118248
